system: E. faecalis (VanS); experiment: In vitro MIC, agar dilution; type: cell-based; conditions: Enterococcus faecalis
Structures can show the parent of a compound that is named as a salt.
metricName: MIC90

Example entries begin here.
{"columns": ["compound", "observed"],
 "data": [
  ["O=C(O)c1cn(C2CC2)c2cc(N3CCNCC3)c(F)cc2c1=O", "4 µg/mL"],
  ["Cc1c(N2C[C@@H](N)C3(CC3)C2)c(F)cn2c(=O)c(C(=O)O)cc(C3CC3)c12 [Example 5, hydrochloride]", "0.25 µg/mL"]
]}

Lookup result for CN[C@@H]1CN(c2c(F)cn3c(=O)c(C(=O)O)cc(C4CC4)c3c2C)CC12CC2 [Example 1, hydrochloride] ; measured MIC90: 0.25 µg/mL

Lookup result for `C[C@@H]1CN(c2c(F)c(N)c3c(=O)c(C(=O)O)cn(C4CC4)c3c2F)C[C@H](C)N1` ; measured MIC90: 0.5 µg/mL

Lookup result for Cc1c(N2CC[C@H](N)C2)c(F)cn2c(=O)c(C(=O)O)cc(C3CC3)c12 [Example 2, hydrochloride] ; measured MIC90: 0.12 µg/mL

Lookup result for NC1CCN(c2c(F)cc3c(=O)c(C(=O)O)cn(C4CC4)c3c2Cl)C1 (stereo not shown) ; measured MIC90: 0.25 µg/mL

Lookup result for Cc1c(N2C[C@@H]3CCCN[C@@H]3C2)c(F)cn2c(=O)c(C(=O)O)cc(C3CC3)c12 [Example 4, hydrochloride] ; measured MIC90: 0.25 µg/mL
